Measured GI50 by item
biological target: Ba/F3 cells overexpressing EGFR Del19/T790M/C797S (Homo sapiens, UniProt P00533, T790M/C797S, cells depend on it, form not given); experiment: Cell proliferation inhibitory activity assay, Ba/F3 EGFR Del19/T790M/C797S; assay type: cell-based; conditions: cell proliferation inhibition, 72 hours, luminescence; read-out: Ba/F3 cells overexpressing different EGFR mutations IC50 (nM) Del19/T790M/C797S
Sequence (P00533 with tags, fused parts or gaps DEL746-750/T790M/C797S, form open): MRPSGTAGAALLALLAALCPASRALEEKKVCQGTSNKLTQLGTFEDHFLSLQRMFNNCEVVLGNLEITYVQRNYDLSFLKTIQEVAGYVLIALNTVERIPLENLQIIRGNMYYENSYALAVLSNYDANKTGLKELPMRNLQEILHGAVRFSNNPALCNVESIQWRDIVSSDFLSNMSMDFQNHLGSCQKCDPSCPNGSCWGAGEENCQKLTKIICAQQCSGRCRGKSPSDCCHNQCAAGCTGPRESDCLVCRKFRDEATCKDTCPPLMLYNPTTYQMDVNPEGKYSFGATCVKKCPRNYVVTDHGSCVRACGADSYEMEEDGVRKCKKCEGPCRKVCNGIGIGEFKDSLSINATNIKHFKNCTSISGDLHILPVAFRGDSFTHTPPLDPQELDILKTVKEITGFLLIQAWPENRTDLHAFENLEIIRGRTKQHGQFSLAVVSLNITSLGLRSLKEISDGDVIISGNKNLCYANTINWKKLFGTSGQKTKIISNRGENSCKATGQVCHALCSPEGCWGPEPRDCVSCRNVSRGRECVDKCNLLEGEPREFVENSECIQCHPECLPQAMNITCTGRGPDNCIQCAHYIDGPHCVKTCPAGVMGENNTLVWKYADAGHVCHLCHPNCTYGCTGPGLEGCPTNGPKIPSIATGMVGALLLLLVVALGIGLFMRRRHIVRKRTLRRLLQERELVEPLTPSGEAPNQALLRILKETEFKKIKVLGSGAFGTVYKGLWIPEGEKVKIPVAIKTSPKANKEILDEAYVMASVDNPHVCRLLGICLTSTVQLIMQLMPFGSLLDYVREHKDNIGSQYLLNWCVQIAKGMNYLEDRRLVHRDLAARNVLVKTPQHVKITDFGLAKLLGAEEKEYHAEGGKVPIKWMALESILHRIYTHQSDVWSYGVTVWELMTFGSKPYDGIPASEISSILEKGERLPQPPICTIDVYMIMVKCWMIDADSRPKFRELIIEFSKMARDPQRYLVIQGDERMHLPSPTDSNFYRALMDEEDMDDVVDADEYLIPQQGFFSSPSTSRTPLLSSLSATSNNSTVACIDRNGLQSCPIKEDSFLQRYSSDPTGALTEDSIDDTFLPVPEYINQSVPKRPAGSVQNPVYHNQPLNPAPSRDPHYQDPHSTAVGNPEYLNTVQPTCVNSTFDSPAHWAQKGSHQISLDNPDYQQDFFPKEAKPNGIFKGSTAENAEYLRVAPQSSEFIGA
Provide a numeric answer, followed by its unit.

Recorded results for 5 compounds are shown here.
* Cc1cc2cc(n1)-c1cnc(F)cc1OCCC[C@@H](C)Cn1c(nc3ccc(N4CCC5(CC4)CCN(C4COC4)CC5)cc31)NC2=O | 1.4 nM
* Cc1cc2cc(n1)-c1cnccc1OCCC[C@@H](C)Cn1c(nc3ccc(N4CCC5(CC4)CCN(C4CC4)CC5)cc31)NC2=O | 1.6 nM
* Cc1cc2cc(n1)-c1cnccc1OCCC[C@@H](C)Cn1c(nc3cc(F)c(N4CCC5(CC4)CCN(C4COC4)CC5)cc31)NC2=O | 2.1 nM
* Cc1cc2cc(n1)-c1cnccc1OCCCCCn1c(nc3cc(C)c(N4CCC5(CCN(C)CC5)CC4)cc31)NC2=O | 0.96 nM
* Cc1cc2cc(n1)-c1cnccc1OCCCCCn1c(nc3ccc(N4CCC5(CC4)CCN(C4CC4)CC5)cc31)NC2=O | 1.8 nM

// field: GI50; key: COCCCN1CCC2(CC1)CCN(c1ccc3nc4n(c3c1)C[C@H](C)CCCOc1ccncc1-c1cc(cc(C)n1)C(=O)N4)CC2 ; value = 0.36 nM

// field: GI50; key: Cc1cc2cc(n1)-c1cnccc1OCCCCCn1c(nc3cc(F)c(N4CCC5(CCN(CC6COC6)CC5)CC4)cc31)NC2=O ; value = 0.95 nM

// field: GI50; key: Cc1cc2cc(n1)-c1cnccc1OCCCC(C)(C)Cn1c(nc3ccc(N4CCC5(CCN(C)CC5)CC4)cc31)NC2=O ; value = 1.6 nM

// field: GI50; key: COCCCN1CCC2(CC1)CCN(c1ccc3nc4n(c3c1)C[C@H](C)CCCOc1cc(F)ncc1-c1cc(cc(C)n1)C(=O)N4)CC2 ; value = 1.2 nM

// field: GI50; key: Cc1cc2cc(n1)-c1cnccc1OCCCCCn1c(nc3cc(F)c(N4CCC5(CC4)CCN(C4CC4)CC5)cc31)NC2=O ; value = 1.1 nM

// field: GI50; key: Cc1cc2cc(n1)-c1cnccc1OCCCCCn1c(nc3cc(F)c(N4CCC5(CCN(C)CC5)CC4)cc31)NC2=O ; value = 0.37 nM

// field: GI50; key: Cc1cc2cc(n1)-c1cnccc1OCCC[C@@H](C)Cn1c(nc3cc(F)c(N4CCC5(CCN(C)CC5)CC4)cc31)NC2=O ; value = 0.61 nM

// field: GI50; key: Cc1cc2cc(n1)-c1cnccc1OCCC[C@@H](C)Cn1c(nc3ccc(N4CCC5(CC4)CCN(C4COC4(C)C)CC5)cc31)NC2=O (some centres unmarked) ; value = 4.7 nM

// field: GI50; key: COCCN1CCC2(CC1)CCN(c1ccc3nc4n(c3c1)CCCCCOc1ccncc1-c1cc(cc(C)n1)C(=O)N4)CC2 ; value = 0.07 nM

// field: GI50; key: Cc1cc2cc(n1)-c1cnccc1OCCCCCn1c(nc3ccc(N4CCC5(CCN(CCC(N)=O)CC5)CC4)cc31)NC2=O ; value = 0.77 nM

// field: GI50; key: Cc1cc2cc(n1)-c1cnccc1OCCCCCn1c(nc3cc(F)c(N4CCC5(CC4)CCN(C4COC4)CC5)cc31)NC2=O ; value = 0.5 nM

// field: GI50; key: Cc1cc2cc(n1)-c1cnccc1OCCC[C@@H](C)Cn1c(nc3cc(C)c(N4CCC5(CCN(C)CC5)CC4)cc31)NC2=O ; value = 2.2 nM
